Where these numbers come from: patent US20040116336A1

Measured EC50 by item
Biological target: APJ (Homo sapiens, UniProt P35414)
Construct: expressed in transfected cells; host or cells: CHO (CHO-A10; clone 6 for the cAMP assay)
Sequence (P35414 1-380): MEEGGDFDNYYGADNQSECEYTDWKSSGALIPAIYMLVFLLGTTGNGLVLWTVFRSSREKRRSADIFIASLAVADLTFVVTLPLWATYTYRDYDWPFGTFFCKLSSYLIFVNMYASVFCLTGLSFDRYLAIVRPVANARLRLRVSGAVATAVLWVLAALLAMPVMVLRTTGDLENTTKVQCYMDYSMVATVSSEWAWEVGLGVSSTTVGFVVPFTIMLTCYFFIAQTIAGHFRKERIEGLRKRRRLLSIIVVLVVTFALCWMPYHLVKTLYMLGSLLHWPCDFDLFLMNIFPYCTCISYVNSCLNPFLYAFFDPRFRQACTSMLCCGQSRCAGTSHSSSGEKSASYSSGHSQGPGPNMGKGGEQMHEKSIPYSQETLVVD
Assay: Inhibitory activity on forskolin-stimulated cAMP production in CHO-A10 clone 6 cells
Type: cell-based
Conditions: read-out: EC50
Non-standard residues stand in square brackets, D forms with d. Residues, ends and D or L forms follow the SMILES beside them. 2Nal = N[C@@H](Cc1ccc2ccccc2c1)C(=O)O
Answer format: numeric, nM implied, no suffix.

Query: Requested read-out: EC50. Entry: CSCC[C@H](NC(=O)[C@@H]1CCCN1C(=O)CNC(=O)[C@H](CCCCN)NC(=O)[C@H](Cc1c[nH]cn1)NC(=O)[C@H](CO)NC(=O)[C@H](CC(C)C)NC(=O)[C@H](CCCNC(=N)N)NC(=O)[C@@H]1CCCN1C(=O)[C@@H](N)CCCNC(=N)N)C(=O)N[C@@H](Cc1ccc2ccccc2c1)C(=O)O [Compound in Ex. 40] (H-RPRLSHKGPM[2Nal]-OH)
Reply: 0.37

Query: Requested read-out: EC50. Entry: CC(C)C[C@H](NC(=O)[C@H](CCCNC(=N)N)NC(=O)[C@@H]1CCCN1C(=O)[C@H](CCCNC(=N)N)NC(=O)[C@H](CCC(N)=O)NC(=O)[C@H](CCCNC(=N)N)NC(=O)[C@@H](N)CCCNC(=N)N)C(=O)N[C@@H](CO)C(=O)N[C@@H](C)C(=O)N[C@@H](CCCNC(=N)N)C(=O)NCC(=O)N1CCC[C@H]1C(=O)N[C@@H](CC1CCCCC1)C(=O)O
Reply: 0.55

====

Molecular target: APJ (Homo sapiens, UniProt P35414)
Construct: expressed in transfected cells; host or cells: CHO (CHO-A10; clone 6 for the cAMP assay)
Assay: Receptor binding assay-2 (compound in Reference Example 2 used)
Conditions: compound in Reference Example 2 used as ligand; read-out: IC50
Procedure: This product was mixed with an equal volume of an assay buffer (50 mM Tris-HCl/pH 7.5, 5 mM EDTA, 0.5 mM PMSF, 20 μg/ml leupeptin, 0.1 μg/ml pepstatin A, 4 μg/ml E-64 (Peptide Research Laboratory, Co.), 0.1% bovine serum albumin) and stored at −30° C. before use. CHO-A10 cells were cultured, recovered with PBS containing 5 mM EDTA from a culture vessel, and suspended in the above-mentioned assay buffer not containing bovine serum albumin. […]
Measured IC50 by item
Answer format: numeric, nM implied, no suffix.

CSCC[C@H](NC(=O)[C@@H]1CCCN1C(=O)CNC(=O)[C@H](CCCCN)NC(=O)[C@H](C)NC(=O)[C@H](CO)NC(=O)[C@H](CC(C)C)NC(=O)[C@H](CCCNC(=N)N)NC(=O)[C@@H]1CCCN1C(=O)[C@H](CCCNC(=N)N)NC(=O)[C@@H]1CCC(=O)N1)C(=O)N1CCC[C@H]1C(=O)N[C@@H](Cc1ccccc1)C(=O)O	0.21

For the next question, use this compound.
Query: Checklist item: IC50 tested on APJ (Homo sapiens, UniProt P35414), entry CSCC[C@H](NC(=O)[C@@H]1CCCN1C(=O)CNC(=O)[C@H](CCCCN)NC(=O)[C@H](Cc1c[nH]cn1)NC(=O)[C@H](CO)NC(=O)[C@H](CC(C)C)NC(=O)[C@H](CCCNC(=N)N)NC(=O)[C@@H]1CCCN1C(=O)[C@H](CCCNC(=N)N)NC(=O)[C@H](CCCNC(=N)N)NC(=O)[C@H](CCCNC(=N)N)NC(=O)[C@@H](N)CCCNC(=N)N)C(=O)N1CCC[C@H]1C(=O)N[C@@H](Cc1ccccc1)C(=O)O , value?
Reply: 0.12

====

Measured pIC50 by item
biological target: APJ (Homo sapiens); construct: expressed in transfected cells; host or cells: CHO (CHO-A10; clone 6 for the cAMP assay); test: Receptor binding assay-1 (125I-labeled compound in Reference Example 1, CHO-A10 membrane fraction); settings: 125I-labeled compound in Reference Example 1 at 100 pM, room temperature […]
Non-standard residues stand in square brackets, D forms with d. Residues, ends and D or L forms follow the SMILES beside them. Phe(4-Cl) = N[C@@H](Cc1ccc(Cl)cc1)C(=O)O; Cha = N[C@@H](CC1CCCCC1)C(=O)O
Worth noting: pIC50 values are minus log10 of concentrations stated in mol/L.

CC(C)C[C@H](NC(=O)[C@H](CCCNC(=N)N)NC(=O)[C@@H]1CCCN1C(=O)[C@@H](N)CCCNC(=N)N)C(=O)N[C@@H](CO)C(=O)N[C@@H](C)C(=O)N[C@@H](CCCNC(=N)N)C(=O)NCC(=O)N1CCC[C@H]1C(=O)N[C@@H](CC1CCCCC1)C(=O)N1CCC[C@H]1C(=O)N[C@@H](Cc1ccccc1)C(=O)O [Compound in Ex. 11] (H-RPRLSARGP[Cha]PF-OH; N-terminus and C-terminus assumed)	8.66
CSCC[C@H](NC(=O)[C@@H]1CCCN1C(=O)CNC(=O)[C@H](CCCNC(=N)N)NC(=O)[C@H](C)NC(=O)[C@H](CO)NC(=O)[C@H](CC(C)C)NC(=O)[C@H](CCCNC(=N)N)NC(=O)[C@@H]1CCCN1C(=O)[C@H](CCCNC(=N)N)NC(=O)[C@H](CCC(N)=O)NC(=O)[C@H](CCCNC(=N)N)NC(=O)[C@@H](N)CCCNC(=N)N)C(=O)O	8.60
CSCC[C@H](NC(=O)[C@@H]1CCCN1C(=O)CNC(=O)[C@H](CCCNC(=N)N)NC(=O)[C@H](C)NC(=O)[C@H](CO)NC(=O)[C@H](CC(C)C)NC(=O)[C@H](CCCNC(=N)N)NC(=O)[C@@H]1CCCN1C(=O)[C@@H](N)CCCNC(=N)N)C(=O)N1CCC[C@H]1C(=O)N[C@@H](Cc1ccc(Cl)cc1)C(=O)O [Compound in Ex. 3] (H-RPRLSARGPMP[Phe(4-Cl)]-OH; N-terminus and C-terminus assumed)	9.04
CC(C)C[C@H](NC(=O)[C@H](CCCNC(=N)N)NC(=O)[C@@H]1CCCN1C(=O)[C@H](CCCNC(=N)N)NC(=O)[C@H](CCC(N)=O)NC(=O)[C@H](CCCNC(=N)N)NC(=O)[C@@H](N)CCCNC(=N)N)C(=O)N[C@@H](CO)C(=O)N[C@@H](C)C(=O)N[C@@H](CCCNC(=N)N)C(=O)NCC(=O)N1CCC[C@H]1C(=O)N[C@@H](CC1CCCCC1)C(=O)O	8.85
CC(C)C[C@H](NC(=O)[C@H](CCCNC(=N)N)NC(=O)[C@@H]1CCCN1C(=O)[C@@H](N)CCCNC(=N)N)C(=O)N[C@@H](CO)C(=O)N[C@@H](Cc1c[nH]cn1)C(=O)N[C@@H](CCCCN)C(=O)NCC(=O)N1CCC[C@H]1C(=O)N[C@@H](CC1CCCCC1)C(=O)N1CCC[C@H]1C(=O)N[C@@H](Cc1ccc(Cl)cc1)C(=O)O	8.85
CSCC[C@H](NC(=O)[C@@H]1CCCN1C(=O)CNC(=O)[C@H](CCCCN)NC(=O)[C@H](Cc1c[nH]cn1)NC(=O)[C@H](CO)NC(=O)[C@H](CC(C)C)NC(=O)[C@H](CCCNC(=N)N)NC(=O)[C@@H]1CCCN1C(=O)[C@H](CCCNC(=N)N)NC(=O)[C@H](CCCCN)NC(=O)[C@H](CCCNC(=N)N)NC(=O)[C@@H](N)CCCNC(=N)N)C(=O)N1CCC[C@H]1C(=O)N[C@@H](Cc1ccccc1)C(=O)O	8.04
CSCC[C@H](NC(=O)[C@@H]1CCCN1C(=O)CNC(=O)[C@H](CCCCN)NC(=O)[C@H](Cc1c[nH]cn1)NC(=O)[C@H](Cc1ccccc1)NC(=O)[C@H](CC(C)C)NC(=O)[C@H](CCCNC(=N)N)NC(=O)[C@@H]1CCCN1C(=O)[C@@H](N)CCCNC(=N)N)C(=O)N1CCC[C@H]1C(=O)N[C@@H](Cc1ccc(Cl)cc1)C(=O)O [Compound in Ex. 16] (H-RPRLFHKGPMP[Phe(4-Cl)]-OH; N-terminus and C-terminus assumed)	8.10
CC(C)C[C@H](NC(=O)[C@H](CCCNC(=N)N)NC(=O)[C@@H]1CCCN1C(=O)[C@H](CCCNC(=N)N)NC(=O)[C@H](CCC(N)=O)NC(=O)[C@H](CCCNC(=N)N)NC(=O)[C@@H](N)CCCNC(=N)N)C(=O)N[C@@H](CO)C(=O)N[C@@H](Cc1c[nH]cn1)C(=O)N[C@@H](CCCCN)C(=O)NCC(=O)N1CCC[C@H]1C(=O)N[C@@H](CC1CCCCC1)C(=O)N1CCC[C@H]1C(=O)N[C@@H](Cc1ccc(Cl)cc1)C(=O)O	9.33
CCCC[C@H](NC(=O)[C@@H]1CCCN1C(=O)CNC(=O)[C@H](CCCCN)NC(=O)[C@H](Cc1c[nH]cn1)NC(=O)[C@H](CO)NC(=O)[C@H](CC(C)C)NC(=O)[C@H](CCCNC(=N)N)NC(=O)[C@@H]1CCCN1C(=O)[C@H](CCCNC(=N)N)NC(=O)[C@H](CCC(N)=O)NC(=O)[C@H](CCCNC(=N)N)NC(=O)[C@@H](N)CCCNC(=N)N)C(=O)N1CCC[C@H]1C(=O)N[C@@H](Cc1ccc(O)cc1)C(=O)O	8.57

For the next question, use this molecule.
Query: Requested read-out: pIC50. Entry: CC(C)C[C@H](NC(=O)[C@H](CCCNC(=N)N)NC(=O)[C@@H]1CCCN1C(=O)[C@@H](N)CCCNC(=N)N)C(=O)N[C@@H](Cc1ccccc1)C(=O)N[C@@H](Cc1c[nH]cn1)C(=O)N[C@@H](CCCCN)C(=O)NCC(=O)N1CCC[C@H]1C(=O)N[C@@H](CC1CCCCC1)C(=O)N1CCC[C@H]1C(=O)N[C@@H](Cc1ccc(Cl)cc1)C(=O)O [Compound in Ex. 13] (H-RPRLFHKGP[Cha]P[Phe(4-Cl)]-OH; N-terminus and C-terminus assumed)
Reply: 8.57
